Values from paper PMC4176650

Listing: Ki of selected compounds
Assay System: Bacillus pasteurii urease (Sporosarcina pasteurii, UniProt P41020)
Sequence (P41021 whole entry): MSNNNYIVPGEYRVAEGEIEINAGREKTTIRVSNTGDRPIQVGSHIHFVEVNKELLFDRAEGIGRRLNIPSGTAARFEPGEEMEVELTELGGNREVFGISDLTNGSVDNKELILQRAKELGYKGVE
Sequence (P41022 whole entry, further chain): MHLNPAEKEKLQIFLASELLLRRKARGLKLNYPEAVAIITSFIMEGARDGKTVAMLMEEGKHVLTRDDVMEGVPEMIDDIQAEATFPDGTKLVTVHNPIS
Sequence (P41020 whole entry): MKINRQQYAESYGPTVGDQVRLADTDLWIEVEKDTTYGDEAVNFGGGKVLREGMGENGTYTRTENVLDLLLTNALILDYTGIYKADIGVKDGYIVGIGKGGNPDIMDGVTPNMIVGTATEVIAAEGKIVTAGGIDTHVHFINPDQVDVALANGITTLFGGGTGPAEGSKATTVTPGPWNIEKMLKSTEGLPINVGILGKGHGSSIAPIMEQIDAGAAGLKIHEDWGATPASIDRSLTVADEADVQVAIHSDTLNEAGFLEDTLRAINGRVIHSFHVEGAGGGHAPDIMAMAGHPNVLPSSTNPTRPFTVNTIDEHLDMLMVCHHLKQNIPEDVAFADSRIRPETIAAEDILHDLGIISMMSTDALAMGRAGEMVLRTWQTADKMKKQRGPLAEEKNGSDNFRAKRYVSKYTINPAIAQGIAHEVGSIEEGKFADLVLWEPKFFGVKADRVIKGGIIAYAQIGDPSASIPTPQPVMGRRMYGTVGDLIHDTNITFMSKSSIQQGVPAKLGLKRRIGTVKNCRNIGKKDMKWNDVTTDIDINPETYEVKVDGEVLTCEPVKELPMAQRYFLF
Experiment Summary: Urease assay and inhibition kinetics, Bacillus pasteurii urease
Format: biochemical
Condition Set: Urease (BP); Dixon plot and secondary Lineweaver-Burk plot; pH 6.8, 30°C; read-out: Ki (µM) ± SEM
Test Readout: Ki (µM)

>>> reported_value("CC(c1c(O)c2ccccc2oc1=O)c1c(O)c2ccccc2oc1=O")
53
>>> reported_value("O=c1oc2ccccc2c(O)c1C(/C=C/c1ccccc1)c1c(O)c2ccccc2oc1=O")
19
>>> reported_value("O=c1oc2ccccc2c(O)c1C(c1cccnc1)c1c(O)c2ccccc2oc1=O")
63.6
>>> reported_value("O=c1oc2ccccc2c(O)c1C(c1ccncc1)c1c(O)c2ccccc2oc1=O")
51.3
>>> reported_value("O=c1oc2ccccc2c(O)c1C(c1cc[nH]c1)c1c(O)c2ccccc2oc1=O")
68.1
>>> reported_value("O=c1oc2ccccc2c(O)c1C(c1c(O)c2ccccc2oc1=O)c1c[nH]c2ccccc12")
59.5
>>> reported_value("COc1cccc(C(c2c(O)c3ccccc3oc2=O)c2c(O)c3ccccc3oc2=O)c1")
15.5
>>> reported_value("C/C=C/C(c1c(O)c2ccccc2oc1=O)c1c(O)c2ccccc2oc1=O")
48.3
>>> reported_value("CCCCC(c1c(O)c2ccccc2oc1=O)c1c(O)c2ccccc2oc1=O")
27.5
